The reported numbers originate from patent US11179367B2.

Molecular target: F508del-CFTR in human bronchial epithelial (HBE) cells (Homo sapiens, UniProt P13569, DEL508-508)
Construct: endogenous in cells
Test: Ussing chamber assay, chloride current in airway epithelial (HBE) cells expressing F508del
Description: Ussing chamber experiments were performed on polarized airway epithelial cells expressing F508del to further characterize the F508del modulators identified in the optical assay above. […] A basolateral to apical membrane Cl^− concentration gradient was set up as follows. […] Chloride current was measured to assess the increase in functional CFTR in the cell membrane.
measuredProperty: EC50

Ask: Entry Cc1nn(C)cc1S(=O)(=O)NC(=O)c1ccc(-n2ccc(OCC(C)(C)C(F)(F)F)n2)nc1N1C[C@@H](C)CC1(C)C [Compound I] has what EC50?
Result: < 2000 nM

* * *

Test: Rat pharmacokinetics, single IV and oral dose
Format: in vivo
Conditions: rat, plasma; male Sprague Dawley rats, single nominal oral dose 3 mg/kg, AUC extrapolated to infinity
measuredProperty: AUC (ng·h/mL)
Return type: number; implicit unit ng·h/mL.

Ask: Entry Cc1nn(C)cc1S(=O)(=O)NC(=O)c1ccc(-n2ccc(OCC(C)(C)C(F)(F)F)n2)nc1N1C[C@@H](C)CC1(C)C [Compound I] has what AUC?
Result: 23500

* * *

Biological target: F508del CFTR in NIH3T3 cells (Homo sapiens, UniProt P13569, DEL508-508)
Construct: expressed in transfected cells
Sequence (P13569 with tags, fused parts or gaps DEL508-508): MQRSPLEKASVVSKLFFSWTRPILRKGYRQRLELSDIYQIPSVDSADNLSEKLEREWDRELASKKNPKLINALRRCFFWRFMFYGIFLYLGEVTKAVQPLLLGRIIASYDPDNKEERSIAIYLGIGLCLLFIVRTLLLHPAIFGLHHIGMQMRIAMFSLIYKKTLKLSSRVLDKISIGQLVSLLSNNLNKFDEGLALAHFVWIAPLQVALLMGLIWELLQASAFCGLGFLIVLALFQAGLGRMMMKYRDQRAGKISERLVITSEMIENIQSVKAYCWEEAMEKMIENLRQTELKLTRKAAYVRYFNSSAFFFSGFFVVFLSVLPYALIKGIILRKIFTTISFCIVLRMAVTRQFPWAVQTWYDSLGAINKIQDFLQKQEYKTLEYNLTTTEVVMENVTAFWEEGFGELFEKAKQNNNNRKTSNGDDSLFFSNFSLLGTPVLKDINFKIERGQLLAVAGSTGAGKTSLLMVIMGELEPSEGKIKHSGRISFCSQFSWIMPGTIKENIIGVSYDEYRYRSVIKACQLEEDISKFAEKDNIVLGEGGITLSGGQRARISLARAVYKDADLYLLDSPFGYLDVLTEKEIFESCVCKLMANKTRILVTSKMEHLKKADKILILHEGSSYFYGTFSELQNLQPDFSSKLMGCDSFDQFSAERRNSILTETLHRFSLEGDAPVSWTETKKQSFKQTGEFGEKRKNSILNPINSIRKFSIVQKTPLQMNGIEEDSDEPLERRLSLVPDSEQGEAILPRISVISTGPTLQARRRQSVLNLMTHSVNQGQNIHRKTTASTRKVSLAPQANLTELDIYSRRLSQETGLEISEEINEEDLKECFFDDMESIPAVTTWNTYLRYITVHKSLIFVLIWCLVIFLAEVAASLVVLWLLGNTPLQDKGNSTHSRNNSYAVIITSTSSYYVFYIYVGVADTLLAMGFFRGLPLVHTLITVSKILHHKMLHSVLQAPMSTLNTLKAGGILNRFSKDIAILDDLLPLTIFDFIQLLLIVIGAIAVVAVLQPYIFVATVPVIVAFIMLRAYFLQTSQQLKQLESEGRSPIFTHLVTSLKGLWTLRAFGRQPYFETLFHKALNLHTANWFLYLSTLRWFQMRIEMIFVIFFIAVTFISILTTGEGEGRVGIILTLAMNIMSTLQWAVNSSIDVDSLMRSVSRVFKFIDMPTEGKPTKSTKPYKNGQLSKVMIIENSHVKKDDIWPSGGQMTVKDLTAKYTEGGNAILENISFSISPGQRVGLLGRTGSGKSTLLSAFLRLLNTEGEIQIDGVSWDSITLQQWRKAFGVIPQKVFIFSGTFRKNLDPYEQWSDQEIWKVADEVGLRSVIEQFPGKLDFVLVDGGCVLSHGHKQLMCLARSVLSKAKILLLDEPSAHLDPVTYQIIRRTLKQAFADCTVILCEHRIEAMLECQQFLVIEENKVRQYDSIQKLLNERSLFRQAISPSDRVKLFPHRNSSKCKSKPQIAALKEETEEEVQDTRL
Test: Membrane potential optical assay (correction assay) for F508del-CFTR modulators
Assay type: cell-based
Details: NIH3T3 cells expressing F508del, 18-24 hours treatment
measuredProperty: EC50

Ask: Entry Cc1nn(C)cc1S(=O)(=O)NC(=O)c1ccc(-n2ccc(OCC(C)(C)C(F)(F)F)n2)nc1N1C[C@@H](C)CC1(C)C [Compound I] has what EC50?
Result: < 3 µM

* * *

Assay: Rat pharmacokinetics, single IV and oral dose
Assay type: in vivo
Conditions: rat, plasma; male Sprague Dawley rats, single nominal IV dose 3.0 mg/kg; read-out: Rat iv CL
measuredProperty: clearance (mL/min/kg)
Return type: number; implicit unit mL/min/kg.

Ask: Entry Cc1nn(C)cc1S(=O)(=O)NC(=O)c1ccc(-n2ccc(OCC(C)(C)C(F)(F)F)n2)nc1N1C[C@@H](C)CC1(C)C has what clearance?
Result: 1.6

* * *

Test: Rat pharmacokinetics, single IV and oral dose
Format: in vivo
Settings: rat, plasma; male Sprague Dawley rats, oral bioavailability, PO 3 mg/kg vs IV 3.0 mg/kg; read-out: Rat % F
measuredProperty: bioavailability (%)
Return type: number; implicit unit %.

Ask: Entry Cc1nn(C)cc1S(=O)(=O)NC(=O)c1ccc(-n2ccc(OCC(C)(C)C(F)(F)F)n2)nc1N1C[C@@H](C)CC1(C)C has what bioavailability?
Result: 84
